# Test system: Crude diglycosidase
# experimental-protocol: Examination of substrate concentration in the conversion into isoflavone aglycons by diglycosidase using soybean materials
# Assay type: biochemical, Penicillium multicolor IAM7153
# study-conditions: substrate concentration 2%, heat treatment of enzyme no, reaction time 3 h
quantity-measured: Decomposition efficiency of genistin family in defatted soybean

a: O=c1c(-c2ccc(O)cc2)coc2cc(O)cc(O)c12 [genistein]
b: O=C(O)CC(=O)OC[C@H]1O[C@@H](Oc2cc(O)c3c(=O)c(-c4ccc(O)cc4)coc3c2)[C@H](O)[C@@H](O)[C@@H]1O [malonylgenistin, 6″-O-malonylgenistin]
Q. API: POST /compare with a and b ; response names the item with higher Decomposition efficiency of genistin family in defatted soybean. Please identify the chosen entry by its label.
A. a
(a: 83.0, b: 17.0)
